- system: human CXCR3A (Homo sapiens (Human), UniProt P49682)
- Sequence (P49682 whole entry): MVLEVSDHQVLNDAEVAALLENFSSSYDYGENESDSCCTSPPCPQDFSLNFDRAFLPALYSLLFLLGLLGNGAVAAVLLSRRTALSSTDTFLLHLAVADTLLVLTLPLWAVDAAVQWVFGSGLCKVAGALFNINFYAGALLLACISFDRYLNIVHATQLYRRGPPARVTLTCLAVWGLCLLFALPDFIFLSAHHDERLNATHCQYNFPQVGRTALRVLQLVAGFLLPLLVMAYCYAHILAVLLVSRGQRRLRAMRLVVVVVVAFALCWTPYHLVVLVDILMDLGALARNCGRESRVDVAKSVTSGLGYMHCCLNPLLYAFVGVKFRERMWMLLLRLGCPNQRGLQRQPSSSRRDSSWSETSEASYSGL
- assayMethodText: FLIPR assay
- appliedConditions: CHO-K1 cells expressing the human CXCR3A coupled to Galpha(16); CXCL10 agonist 20 nM; Fluo-4-AM fluorescence; mean values if determined several times
pIC50: −log10 of the molar value.
Classify as follows. Reported pIC50 greater than or equal to 8: 1.0. Reported pIC50 below: 0.0.

C[C@@H]1CN(c2sc(CN(C)C)nc2-c2nc3ccccc3[nH]2)CCN1C(=O)Cn1cnc2cccnc21 0.0
C[C@@H]1CN(c2scnc2-c2nc3cc(Cl)c(F)cc3[nH]2)CCN1C(=O)Cn1cnc2cccnc21 1.0
O=C(Cn1ccc2cccc(F)c21)N1CCN(c2scnc2-c2nc3ccccc3[nH]2)CC1 1.0
Cc1nn(CC(=O)N2CCN(c3sc(C(F)(F)F)nc3-c3nc4ccccc4[nH]3)C[C@H]2C)cc1CN(C)C 1.0
Cc1ccc2[nH]c(-c3ncsc3N3CCN(C(=O)Cn4cnc5cccnc54)[C@H](C)C3)nc2c1 1.0
Cc1nc(C)n(CC(=O)N2CCN(c3sc(C(F)(F)F)nc3-c3nc4ccc(C5CCNCC5)cc4[nH]3)C[C@H]2C)n1 1.0
C[C@@H]1CN(c2scnc2-c2nc3ccccc3[nH]2)CCN1C(=O)Cn1cnc2ccncc21 1.0
N#Cc1cccc2ccn(CC(=O)N3CCN(c4scnc4-c4nc5ccccc5[nH]4)CC3)c12 1.0

q: Answer whether pIC50 of O=C(Cn1cnc2ccccc21)N1CCN(c2scnc2-c2nc3ccccc3[nH]2)CC1 is greater than or equal to 8.
a: 0.0

q: // query: COc1ccc2c(CC(=O)N3CCN(c4scnc4-c4nc5ccccc5[nH]4)C[C@H]3C)coc2c1
a: 0.0

----------
- system: human CXCR3A (Homo sapiens (Human), UniProt P49682)
- assayMethodText: FLIPR assay
- appliedConditions: CHO-K1 cells expressing the human CXCR3A coupled to Galpha(16); CXCL10 agonist 20 nM; Fluo-4-AM fluorescence; mean values if determined several times
Would you mind sorting the entries by IC50 according to these classes? Low (below 2 nM), Medium (2 nM to below 40 nM), High (40 nM or more)

See these solved cases before continuing.
molecule	system	cat
C[C@@H]1CN(c2sc(C(F)(F)F)nc2-c2nc3ccc(CN4CCCCC4)cc3[nH]2)CCN1C(=O)Cn1cccn1	human CXCR3A (Homo sapiens (Human), UniProt P49682)	High
Cc1nc(C)n(CC(=O)N2CCN(c3sc(C(F)(F)F)nc3-c3nc4ccc(-c5noc(C)n5)cc4[nH]3)C[C@H]2C)n1	human CXCR3A (Homo sapiens (Human), UniProt P49682)	Medium
O=C(Cn1ccc2c(Cl)cccc21)N1CCN(c2scnc2-c2nc3ccccc3[nH]2)CC1	human CXCR3A (Homo sapiens (Human), UniProt P49682)	Medium
Cc1nc2ccccn2c1CC(=O)N1CCN(c2scnc2-c2nc3ccccc3[nH]2)CC1	human CXCR3A (Homo sapiens (Human), UniProt P49682)	High
C[C@@H]1CN(c2scnc2-c2nc3ccccc3[nH]2)CCN1C(=O)Cc1csc2ccc(Cl)cc12	human CXCR3A (Homo sapiens (Human), UniProt P49682)	High
C[C@@H]1CN(c2scnc2-c2nc3ccccc3[nH]2)CCN1C(=O)Cn1ncc2cccnc21	human CXCR3A (Homo sapiens (Human), UniProt P49682)	Low
Cc1nc(C)c(CC(=O)N2CCN(c3scnc3-c3nc4ccccc4[nH]3)CC2)s1	human CXCR3A (Homo sapiens (Human), UniProt P49682)	High
C[C@@H]1CN(c2scnc2-c2nc3cc(F)ccc3[nH]2)CCN1C(=O)Cn1cnc2cccnc21	human CXCR3A (Homo sapiens (Human), UniProt P49682)	Low
O=C(Cn1ccc2cccnc21)N1CCN(c2scnc2-c2nc3ccccc3[nH]2)CC1	human CXCR3A (Homo sapiens (Human), UniProt P49682)	Medium
Cc1ccc(-c2nc(-c3nc4ccccc4[nH]3)c(N3CCN(C(=O)Cn4cnc5cccnc54)[C@H](C)C3)s2)cc1	human CXCR3A (Homo sapiens (Human), UniProt P49682)	High

q: Which bin, given its IC50, does COC1CCN(Cc2ccc3nc(-c4nc(C(F)(F)F)sc4N4CCN(C(=O)Cn5cccn5)[C@H](C)C4)[nH]c3c2)C1 (stereo partly drawn) occupy?
a: Medium

q: // query: Cc1nc(C)n(CC(=O)N2CCN(c3sc(C(F)(F)F)nc3-c3nc4ccc(C5CCOCC5)cc4[nH]3)C[C@H]2C)n1
a: Low
